ASSAYED_SYSTEM: JAK2 (Homo sapiens (Human), UniProt O60674)
Sequence (O60674 849-1124): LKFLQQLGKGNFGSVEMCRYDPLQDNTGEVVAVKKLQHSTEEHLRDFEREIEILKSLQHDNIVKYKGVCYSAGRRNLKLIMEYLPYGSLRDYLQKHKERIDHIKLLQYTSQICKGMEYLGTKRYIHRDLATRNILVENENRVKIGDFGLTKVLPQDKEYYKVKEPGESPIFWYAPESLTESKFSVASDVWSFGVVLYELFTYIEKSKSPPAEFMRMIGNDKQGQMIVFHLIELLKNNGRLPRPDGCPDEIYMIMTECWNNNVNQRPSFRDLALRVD
PROCEDURE_SUMMARY: Jak Biochemical HTRF Assay (JAK2)
STATED_CONDITIONS: recombinant GST-tagged catalytic domain, [ATP] 8.5 μM
pIC50: −log10 of the molar value.
The entries below are paired with their reported pIC50.

Here is how some compounds turned out for pIC50.
[[record]]
compound = "CCOC(=O)c1c[nH]c2ncnc(-c3cccc(F)c3)c12 [Example 1-42]"
recorded_metric = "pIC50"
assay_result = 6.92

[[record]]
compound = "C=C(C)C(=O)Nc1cccc(-c2ncnc3[nH]cc(-c4ccccc4C)c23)c1 [Example 20-6]"
recorded_metric = "pIC50"
assay_result = "< 5.83"

[[record]]
compound = "C=C(C)C(=O)Nc1cc(-c2ncnc3[nH]cc(C(=O)OCC)c23)ccc1C [Example 4-10]"
recorded_metric = "pIC50"
assay_result = "< 5.83"

[[record]]
compound = "C=C(C)C(=O)Nc1cccc(-c2ncnc3[nH]cc(-c4cnc(C)s4)c23)c1 [Example 21-6]"
recorded_metric = "pIC50"
assay_result = "< 5.83"

[[record]]
compound = "CCOC(=O)c1c[nH]c2ncnc(-c3ccc4cc[nH]c4c3)c12 [Example 1-83]"
recorded_metric = "pIC50"
assay_result = 6.86


Ask: Any idea what its pIC50 is? The compound is CCOC(=O)c1c[nH]c2ncnc(-c3ccc(N4CCS(=O)(=O)CC4)cc3)c12 [Example 1-97]
Reply: 6.46

Ask: Consider the compound shown here: C=CC(=O)N(C)c1cccc(-c2ncnc3[nH]cc(C(=O)OCC)c23)c1 [Example 12-1] What is its recorded pIC50?
Reply: < 5.83

Ask: Which pIC50 value belongs to CCOC(=O)c1c[nH]c2ncnc(-c3ccccc3F)c12 [Example 1-41] ?
Reply: 6.77

Ask: # query: pIC50 of entry C=CC(=O)Nc1cc(-c2ncnc3[nH]cc(C(=O)OCC)c23)ccc1C [Example 4-11]
Reply: < 5.83

Ask: May I ask what pIC50 has been recorded for C=CC(=O)Nc1cc(-c2ncnc3[nH]cc(C(=O)OCC)c23)ccc1OC [Example 4-15] ?
Reply: < 5.83

Ask: Requested read-out: pIC50. Entry: C=C(C)C(=O)Nc1cccc(-c2ncnc3[nH]cc(C(=O)OC)c23)c1 [Example 11-2]
Reply: < 5.83

Ask: Tell me the measured pIC50 of C=C(C)C(=O)Nc1cc(-c2ncnc3[nH]cc(C(=O)OCC)c23)ccc1CN(C)C [Example 4-30] , please.
Reply: < 5.83

Ask: Record request: pIC50 value, item CCOC(=O)c1c[nH]c2ncnc(-c3ccc(OC)cc3)c12 [Example 1-15]
Reply: 6.87

Ask: Given the compound CCOC(=O)c1c[nH]c2ncnc(-c3cccc(OCC(F)(F)F)c3)c12 [Example 1-21] , what is its reported pIC50?
Reply: 7.14

Ask: Returns the measured pIC50 for the input compound. Input: C=C(C)C(=O)Nc1cccc(-c2ncnc3[nH]cc(-c4cccc(F)c4Cl)c23)c1 [Example 20-5]
Reply: < 5.83

Ask: What value of pIC50 has been recorded for this entry: C=C(C)C(=O)Nc1cc(-c2ncnc3[nH]cc(C(=O)OCC)c23)ccc1CO [Example 4-25]
Reply: < 5.83

Ask: Returns the measured pIC50 for the input compound. Input: C=C(C)C(=O)Nc1cc(-c2ncnc3[nH]cc(C(=O)OCC)c23)ccc1F [Example 4-16]
Reply: < 5.83
